Source of measurements: patent US7794719

measured-target: Aβ1-42 fibers (human)
measurement-protocol: SPR
# maps each entry to its Kd
Just the number please, in nM, no unit attached.

Solved cases (6 shown):
# binder, units-text, Kd
measured = [
    ("MS-R 7.11H1 x 7.11L1 Fab (antibody, V domains shown) VH: QLVESGGGLVQPGGSLRLSCAASGFTFSSYAMSWVRQAPGKGLEWVSGINAAGFRTYYADSVKGRFTISRDNSKNTLYLQMNSLRAEDTAVYYCARGKGNTHKPYGYVRYFDVWGQGTLVTVSS VL: DIVLTQSPATLSLSPGERATLSCRASQRILRIYLAWYQQKPGQAPRLLIYGASSRATGVPARFSGSGSGTDFTLTISSLEPEDFATYYCQQVYSPPHTFGQGTKVEIKR", "nM", 0.47),
    ("MS-R 3.6H5 x 3.6L2 Fab (antibody, V domains shown) VH: QLVESGGGLVQPGGSLRLSCAASGFTFSSYAMSWVRQAPGKGLEWVSAISESGKTKYYADSVKGRFTISRDNSKNTLYLQMNSLRAEDTAVYYCARLTHYARYYRYFDVWGQGTLVTVSS VL: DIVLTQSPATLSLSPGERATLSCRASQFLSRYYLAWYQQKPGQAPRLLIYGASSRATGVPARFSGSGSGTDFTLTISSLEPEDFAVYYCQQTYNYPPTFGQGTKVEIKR", "nM", 0.84),
    ("MS-R 3.4H7 x 3.4L9 Fab (antibody, V domains shown) VH: QLVESGGGLVQPGGSLRLSCAASGFTFSSYAMSWVRQAPGKGLEWVSVISETGKNIYYADSVKGRFTISRDNSKNTLYLQMNSLRAEDTAVYYCARLTHYARYYRYFDVWGQGTLVTVSS VL: DIVLTQSPATLSLSPGERATLSCRASRRIHVYYLAWYQQKPGQAPRLLIYGASSRATGVPARFSGSGSGTDFTLTISSLEPEDFATYYCQQTYDYPPTFGQGTKVEIKR", "nM", 3.51),
    ("MS-R 7.4H2 x 7.12L2 Fab (antibody, V domains shown) VH: QLVESGGGLVQPGGSLRLSCAASGFTFSSYAMSWVRQAPGKGLEWVSAINYNGARIYYADSVKGRFTISRDNSKNTLYLQMNSLRAEDTAVYYCARGKGNTHKPYGYVRYFDVWGQGTLVTVSS VL: DIVLTQSPATLSLSPGERATLSCRASQRFFYKYLAWYQQKPGQAPRLLISGSSNRATGVPARFSGSGSGTDFTLTISSLEPEDFAVYYCLQLYNIPNTFGQGTKVEIKR", "nM", 1.8),
    ("MS-R 7.2H2 x 7.2L1 Fab (antibody, V domains shown) VH: QLVESGGGLVQPGGSLRLSCAASGFTFSSYAMSWVRQAPGKGLEWVSAINGTGMKKYYADSVKGRFTISRDNSKNTLYLQMNSLRAEDTAVYYCARGKGNTHKPYGYVRYFDVWGQGTLVTVSS VL: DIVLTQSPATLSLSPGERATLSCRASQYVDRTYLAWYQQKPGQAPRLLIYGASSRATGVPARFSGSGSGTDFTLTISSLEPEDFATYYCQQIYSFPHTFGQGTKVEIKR", "nM", 1.43),
    ("MS-R 8.1H1 x 8.2L1 Fab (antibody, V domains shown) VH: QLVESGGGLVQPGGSLRLSCAASGFTFSSYAMSWVRQAPGKGLEWVSAISRSGSNIYYADSVKGRFTISRDNSKNTLYLQMNSLRAEDTAVYYCARLLSRGYNGYYHKFDVWGQGTLVTVSS VL: DIVLTQSPATLSLSPGERATLSCRASQRVSGRYLAWYQQKPGQAPRLLIYGASSRATGVPARFSGSGSGTDFTLTISSLEPEDFATYYCQQLSSYPPTFGQGTKVEIKR", "nM", 1.6),
]

Can you share its Kd? I mean this binder: MS-R 3.4H3 x 3.4L9 Fab (antibody, V domains shown) VH: QLVESGGGLVQPGGSLRLSCAASGFTFSSYAMSWVRQAPGKGLEWVSVISQTGRKIYYADSVKGRFTISRDNSKNTLYLQMNSLRAEDTAVYYCARLTHYARYYRYFDVWGQGTLVTVSS VL: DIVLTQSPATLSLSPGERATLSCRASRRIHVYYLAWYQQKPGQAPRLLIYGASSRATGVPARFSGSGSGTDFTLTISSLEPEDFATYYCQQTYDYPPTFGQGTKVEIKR
0.93

Do the same for MS-R 7.4H2 x 7.2L1 Fab (antibody, V domains shown) VH: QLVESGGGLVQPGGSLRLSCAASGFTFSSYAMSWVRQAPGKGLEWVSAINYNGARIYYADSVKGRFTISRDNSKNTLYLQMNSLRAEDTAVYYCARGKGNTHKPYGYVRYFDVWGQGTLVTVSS VL: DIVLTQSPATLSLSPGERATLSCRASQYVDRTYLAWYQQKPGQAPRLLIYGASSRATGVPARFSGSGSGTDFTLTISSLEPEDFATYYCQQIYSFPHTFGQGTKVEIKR please
1.4
